- Study system: RORγ-LBD (Homo sapiens)
- Construct: used as diluted lysate
- Sequence (P51449 269-508 limits assumed): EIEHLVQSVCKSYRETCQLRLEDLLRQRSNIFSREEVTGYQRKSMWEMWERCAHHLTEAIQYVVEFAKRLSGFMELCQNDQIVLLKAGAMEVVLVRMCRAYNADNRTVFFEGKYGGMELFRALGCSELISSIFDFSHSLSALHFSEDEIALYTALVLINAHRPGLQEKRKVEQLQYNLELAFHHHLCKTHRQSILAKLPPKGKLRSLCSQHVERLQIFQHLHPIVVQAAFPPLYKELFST
- Test description: RORγ-Ligand Binding Domain (LBD) TR-FRET Assay
- Condition summary: in presence of 2 μM RORγ antagonist ursolic acid; SRC1 coactivator peptide
Attribute: EC50

Illustrative cases are given below, each with its answer.
{"Compound structure string": "C/C(=C\\c1ccc2c(c1)N(S(=O)(=O)c1cccc(C(F)(F)F)c1)C[C@H](CCc1n[nH]c(=O)o1)O2)c1c(F)cccc1Cl", "EC50": "< 100 nM"}
{"Compound structure string": "CCOc1nn(CC)cc1S(=O)(=O)N1C[C@H](CCc2n[nH]c(=O)o2)Oc2ccc(/C=C/c3c(Cl)cccc3C(F)(F)F)cc21", "EC50": "< 100 nM"}
{"Compound structure string": "C/C(=C\\c1ccc2c(c1)N(S(=O)(=O)c1cccc(C(F)(F)F)c1)C[C@H](CCCn1ccnn1)O2)c1c(F)cccc1Cl", "EC50": "< 100 nM"}

Alright, here's another compound for you.
Lab book: EC50 of C/C(=C\c1ccc2c(c1)N(S(=O)(=O)c1cccc(C(F)(F)F)c1)C[C@H](Oc1n[nH]c(=O)[nH]1)C2)c1c(F)cccc1Cl noted as < 100 nM
